Hello, the source for this data is patent US20220056023A1, in case you need it.

Molecular target: PD-1/PD-L1 (Homo sapiens)
Sequence (Q9NZQ7 19-238 limits assumed): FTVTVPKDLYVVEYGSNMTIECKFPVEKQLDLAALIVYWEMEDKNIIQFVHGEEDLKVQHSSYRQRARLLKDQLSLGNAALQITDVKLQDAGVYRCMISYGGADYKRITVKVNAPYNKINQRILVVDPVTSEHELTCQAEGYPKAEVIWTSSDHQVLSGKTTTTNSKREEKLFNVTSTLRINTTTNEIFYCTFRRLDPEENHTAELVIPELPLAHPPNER
Assay: PD-1/PD-L1 homogeneous time-resolved fluorescence (HTRF) binding assay
Conditions: Tag 1-PD-L1 / Tag 2-PD-1, Cisbio kit
pIC50: −log10 of the molar value.
Reported pIC50 values for the following compounds.

Some compounds with recorded pIC50:
> print(dat)
                                   compound    test.value
1  Cc1c(-c2ccccc2)cccc1-n1cc2cc(CNCCO)cc(C#N)c2n1 [Compound 9]  6.00 to 7.00
2  COc1nc(CN2CCCC[C@H]2C(=O)O)nc2c1CN(c1cccc(-c3ccccc3)c1Cl)C2 [Compound 6]        > 7.00
3  COc1cc(CNCCO)cc2c1CN(c1cccc(-c3ccccc3)c1Cl)C2 [Compound 10]        > 7.00
4  COc1nc(CNCCO)nc2c1CN(c1cccc(-c3ccccc3)c1Cl)C2 [Compound 5]        > 7.00

Let us examine a further case.
Query: Looking for the measured pIC50 of OCCNCc1cnc2nn(-c3cccc(-c4ccccc4)c3Cl)cc2c1 [Compound 1] , can you help?
Result: 6.00 to 7.00
